pKi: −log10 of the molar value.
Consider the following pKi values measured on 5-hydroxytryptamine receptor 2B (Homo sapiens).
Sequence (P41595 whole entry): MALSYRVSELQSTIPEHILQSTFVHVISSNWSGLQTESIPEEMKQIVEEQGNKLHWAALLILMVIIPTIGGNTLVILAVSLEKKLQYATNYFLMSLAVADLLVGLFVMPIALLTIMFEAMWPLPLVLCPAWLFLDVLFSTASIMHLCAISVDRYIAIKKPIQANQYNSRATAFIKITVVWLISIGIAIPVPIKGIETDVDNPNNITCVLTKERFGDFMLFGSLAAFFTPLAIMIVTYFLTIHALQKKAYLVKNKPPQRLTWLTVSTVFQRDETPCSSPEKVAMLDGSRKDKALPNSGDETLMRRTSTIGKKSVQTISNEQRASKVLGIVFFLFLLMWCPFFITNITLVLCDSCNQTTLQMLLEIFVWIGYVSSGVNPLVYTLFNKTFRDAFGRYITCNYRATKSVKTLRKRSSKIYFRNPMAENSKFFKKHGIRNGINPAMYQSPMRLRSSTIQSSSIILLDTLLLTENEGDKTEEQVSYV

| COMPOUND | pKi |
| --- | --- |
| CCCCCCOc1c(OC)cc2c3c1-c1cc4c(cc1CC3N(C)CC2c1ccccc1)OCO4 (stereo not drawn) | 6.18 |
| COc1cc2c3c(c1OC)-c1cc4c(cc1CC3N(CC1CC1)CC2c1ccccc1)OCO4 (stereo not drawn) | 5.84 |
| CCOc1c(OC)cc2c3c1-c1cc4c(cc1CC3N(C)CC2c1ccccc1)OCO4 (stereo not drawn) | 6.68 |
| CCCOc1c(OC)cc2c3c1-c1cc4c(cc1CC3N(C)CC2c1ccccc1)OCO4 (stereo not drawn) | 6.51 |
| C=CCOc1c(OC)cc2c3c1-c1cc4c(cc1CC3N(C)CC2c1ccccc1)OCO4 (stereo not drawn) | 6.38 |
| CCN1CC(c2ccccc2)c2cc(OC)c(OC)c3c2C1Cc1cc2c(cc1-3)OCO2 (stereo not drawn) | 6.38 |
| COc1cc2c3c(c1OCC1CC1)-c1cc4c(cc1CC3N(C)CC2c1ccccc1)OCO4 (stereo not drawn) | 6.52 |
| COc1cc2c3c(c1OC)-c1cc4c(cc1CC3N(C)CC2c1ccccc1)OCO4 (stereo not drawn) | 7.02 |

====

- EXPERIMENTAL SYSTEM: 5-hydroxytryptamine receptor 1B (Homo sapiens, UniProt P28222)
- Sequence (P28222 whole entry): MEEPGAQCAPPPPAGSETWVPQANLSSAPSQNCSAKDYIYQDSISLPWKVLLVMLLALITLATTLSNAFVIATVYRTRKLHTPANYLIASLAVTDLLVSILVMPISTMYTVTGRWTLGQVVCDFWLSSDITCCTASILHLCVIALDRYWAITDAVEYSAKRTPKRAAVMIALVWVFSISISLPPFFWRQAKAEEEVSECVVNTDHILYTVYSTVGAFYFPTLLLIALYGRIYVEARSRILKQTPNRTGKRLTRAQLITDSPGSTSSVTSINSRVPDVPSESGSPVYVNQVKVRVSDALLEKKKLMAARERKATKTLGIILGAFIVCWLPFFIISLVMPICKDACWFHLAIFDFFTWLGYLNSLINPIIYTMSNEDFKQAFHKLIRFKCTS
- ASSAY PROCEDURE: Displacement of [3H]GR125743 from 5HT1B receptor (unknown origin) at 10 uM
MEASURED METRIC: inhibition (%)

| COMPOUND | EXPERIMENTAL SYSTEM | MEASURED METRIC | READING |
| --- | --- | --- | --- |
| COc1cc2c3c(c1O)-c1cc4c(cc1CC3N(C)CC2c1ccccc1)OCO4 (stereo not given) | 5-hydroxytryptamine receptor 1B (Homo sapiens, UniProt P28222) | inhibition | -5.2 |
| C=CCOc1c(OC)cc2c3c1-c1cc4c(cc1CC3N(C)CC2c1ccccc1)OCO4 (stereo not given) | 5-hydroxytryptamine receptor 1B (Homo sapiens, UniProt P28222) | inhibition | 19.4 |
| COc1cc2c3c(c1OC)-c1cc4c(cc1CC3N(CC1CC1)CC2c1ccccc1)OCO4 (stereo not given) | 5-hydroxytryptamine receptor 1B (Homo sapiens, UniProt P28222) | inhibition | 16.2 |
| COc1cc2c3c(c1OC)-c1cc4c(cc1CC3N(C)CC2c1ccccc1)OCO4 (stereo not given) | 5-hydroxytryptamine receptor 1B (Homo sapiens, UniProt P28222) | inhibition | 22.6 |
| CCN1CC(c2ccccc2)c2cc(OC)c(OC)c3c2C1Cc1cc2c(cc1-3)OCO2 (stereo not given) | 5-hydroxytryptamine receptor 1B (Homo sapiens, UniProt P28222) | inhibition | 23.6 |

====

- EXPERIMENTAL SYSTEM: 5-hydroxytryptamine receptor 2B (Homo sapiens)
- ASSAY PROCEDURE: Displacement of [3H]LSD from 5HT2B receptor (unknown origin) at 10 uM
MEASURED METRIC: inhibition (%)

| COMPOUND | READING |
| --- | --- |
| CCCOc1c(OC)cc2c3c1-c1cc4c(cc1CC3N(C)CC2c1ccccc1)OCO4 (stereo not given) | 84 |
| CCOc1c(OC)cc2c3c1-c1cc4c(cc1CC3N(C)CC2c1ccccc1)OCO4 (stereo not given) | 83.3 |
| CCCCCCOc1c(OC)cc2c3c1-c1cc4c(cc1CC3N(C)CC2c1ccccc1)OCO4 (stereo not given) | 63.6 |
| CCN1CC(c2ccccc2)c2cc(OC)c(OC)c3c2C1Cc1cc2c(cc1-3)OCO2 (stereo not given) | 88.4 |
| COc1cc2c3c(c1OC)-c1cc4c(cc1CC3N(C)CC2c1ccccc1)OCO4 (stereo not given) | 92.2 |
